Let's look at some molecules and their measured pIC50.
assayed.system: Nav 1.5 (Homo sapiens (Human), UniProt Q14524)
Sequence (Q14524 whole entry): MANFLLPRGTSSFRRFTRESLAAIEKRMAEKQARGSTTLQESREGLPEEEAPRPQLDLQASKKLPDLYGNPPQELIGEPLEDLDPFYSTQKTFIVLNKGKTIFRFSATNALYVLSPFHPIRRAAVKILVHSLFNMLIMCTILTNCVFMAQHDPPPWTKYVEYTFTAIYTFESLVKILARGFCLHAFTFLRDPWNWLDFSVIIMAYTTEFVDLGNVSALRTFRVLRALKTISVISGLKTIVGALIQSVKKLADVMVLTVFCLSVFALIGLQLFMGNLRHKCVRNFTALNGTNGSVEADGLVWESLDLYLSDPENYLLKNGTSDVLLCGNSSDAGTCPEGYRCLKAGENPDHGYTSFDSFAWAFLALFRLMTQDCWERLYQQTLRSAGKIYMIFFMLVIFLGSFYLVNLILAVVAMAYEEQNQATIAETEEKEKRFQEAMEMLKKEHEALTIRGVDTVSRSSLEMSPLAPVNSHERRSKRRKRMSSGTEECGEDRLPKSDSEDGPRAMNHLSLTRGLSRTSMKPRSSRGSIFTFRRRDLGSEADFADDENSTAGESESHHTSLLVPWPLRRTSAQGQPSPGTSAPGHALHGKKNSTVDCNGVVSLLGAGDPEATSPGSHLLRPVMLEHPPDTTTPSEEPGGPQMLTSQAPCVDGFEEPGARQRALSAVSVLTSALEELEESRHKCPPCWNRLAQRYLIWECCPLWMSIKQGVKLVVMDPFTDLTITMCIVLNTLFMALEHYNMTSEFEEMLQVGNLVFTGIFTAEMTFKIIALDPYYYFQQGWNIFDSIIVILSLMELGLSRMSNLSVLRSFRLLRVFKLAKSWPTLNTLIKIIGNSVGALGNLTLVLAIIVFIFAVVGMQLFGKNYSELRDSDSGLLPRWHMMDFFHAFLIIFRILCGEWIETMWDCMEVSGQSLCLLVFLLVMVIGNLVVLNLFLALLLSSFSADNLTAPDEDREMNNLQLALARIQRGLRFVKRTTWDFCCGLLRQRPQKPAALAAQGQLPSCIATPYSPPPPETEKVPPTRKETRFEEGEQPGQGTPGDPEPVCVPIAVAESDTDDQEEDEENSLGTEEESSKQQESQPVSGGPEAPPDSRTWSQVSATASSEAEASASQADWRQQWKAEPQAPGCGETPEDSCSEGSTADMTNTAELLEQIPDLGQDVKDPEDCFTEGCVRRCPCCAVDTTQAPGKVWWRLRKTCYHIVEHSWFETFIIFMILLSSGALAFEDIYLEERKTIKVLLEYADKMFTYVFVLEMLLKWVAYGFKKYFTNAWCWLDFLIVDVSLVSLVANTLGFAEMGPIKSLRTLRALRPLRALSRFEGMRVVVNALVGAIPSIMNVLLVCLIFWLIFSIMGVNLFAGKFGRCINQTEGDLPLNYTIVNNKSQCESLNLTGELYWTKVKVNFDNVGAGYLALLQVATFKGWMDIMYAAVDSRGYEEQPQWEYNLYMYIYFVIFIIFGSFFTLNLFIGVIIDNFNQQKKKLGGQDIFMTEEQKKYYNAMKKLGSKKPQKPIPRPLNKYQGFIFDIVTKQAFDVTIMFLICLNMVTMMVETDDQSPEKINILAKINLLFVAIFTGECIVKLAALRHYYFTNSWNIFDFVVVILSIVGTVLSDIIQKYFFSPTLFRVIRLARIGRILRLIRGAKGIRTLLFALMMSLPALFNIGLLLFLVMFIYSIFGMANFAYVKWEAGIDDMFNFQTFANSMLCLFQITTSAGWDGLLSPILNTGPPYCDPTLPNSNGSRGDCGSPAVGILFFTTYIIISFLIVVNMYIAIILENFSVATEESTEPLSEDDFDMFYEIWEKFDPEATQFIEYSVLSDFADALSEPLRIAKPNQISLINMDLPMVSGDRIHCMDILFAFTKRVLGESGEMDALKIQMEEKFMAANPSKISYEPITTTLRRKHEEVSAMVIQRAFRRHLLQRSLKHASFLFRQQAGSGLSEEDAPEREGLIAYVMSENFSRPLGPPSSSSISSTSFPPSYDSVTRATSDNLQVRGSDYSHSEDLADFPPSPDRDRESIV
protocol: Nav 1.5 in vitro assay, IonWorks Quattro (IWQ) population patch-clamp
Assay type: cell-based
particulars: HEK 293 cells stably transfected with Nav 1.5; 26th pulse to -20 mV
pIC50: −log10 of the molar value.
endpoint.name: pIC50

molecule	result
O=S(=O)(Nc1ccncn1)c1ccc2c(c1)OCCN2c1ccc(C(F)(F)F)cc1C1=CCNCC1 [Example 45, 2,2,2-Trifluoroacetate]	5.92
N#Cc1cc(C(F)(F)F)ccc1N1CCOc2cc(S(=O)(=O)Nc3ccno3)ccc21 [Example 91]	< 5.00
COc1cc(Cl)ccc1N1C[C@H](C)Oc2cc(S(=O)(=O)Nc3nccs3)ccc21 (single isomer, unassigned) [Example 104]	< 5.00
N#Cc1cccc(F)c1N1CCOc2cc(S(=O)(=O)Nc3nccs3)ccc21 [Example 159]	< 5.00
CN1CCN(c2ccc(C(F)(F)F)cc2Cl)c2ccc(S(=O)(=O)Nc3ncns3)cc21 [Example 19]	< 5.00
N#Cc1ccc(C(F)(F)F)cc1N1CCOc2cc(S(=O)(=O)Nc3nccs3)ccc21 [Example 184]	5.50
Cc1nsc(NS(=O)(=O)c2ccc3c(c2)OCCN3c2ccc(C(F)(F)F)cc2Cl)n1 [Example 10]	< 5.00

====

assayed.system: UniProtKB Q15858
Sequence (Q15858 whole entry): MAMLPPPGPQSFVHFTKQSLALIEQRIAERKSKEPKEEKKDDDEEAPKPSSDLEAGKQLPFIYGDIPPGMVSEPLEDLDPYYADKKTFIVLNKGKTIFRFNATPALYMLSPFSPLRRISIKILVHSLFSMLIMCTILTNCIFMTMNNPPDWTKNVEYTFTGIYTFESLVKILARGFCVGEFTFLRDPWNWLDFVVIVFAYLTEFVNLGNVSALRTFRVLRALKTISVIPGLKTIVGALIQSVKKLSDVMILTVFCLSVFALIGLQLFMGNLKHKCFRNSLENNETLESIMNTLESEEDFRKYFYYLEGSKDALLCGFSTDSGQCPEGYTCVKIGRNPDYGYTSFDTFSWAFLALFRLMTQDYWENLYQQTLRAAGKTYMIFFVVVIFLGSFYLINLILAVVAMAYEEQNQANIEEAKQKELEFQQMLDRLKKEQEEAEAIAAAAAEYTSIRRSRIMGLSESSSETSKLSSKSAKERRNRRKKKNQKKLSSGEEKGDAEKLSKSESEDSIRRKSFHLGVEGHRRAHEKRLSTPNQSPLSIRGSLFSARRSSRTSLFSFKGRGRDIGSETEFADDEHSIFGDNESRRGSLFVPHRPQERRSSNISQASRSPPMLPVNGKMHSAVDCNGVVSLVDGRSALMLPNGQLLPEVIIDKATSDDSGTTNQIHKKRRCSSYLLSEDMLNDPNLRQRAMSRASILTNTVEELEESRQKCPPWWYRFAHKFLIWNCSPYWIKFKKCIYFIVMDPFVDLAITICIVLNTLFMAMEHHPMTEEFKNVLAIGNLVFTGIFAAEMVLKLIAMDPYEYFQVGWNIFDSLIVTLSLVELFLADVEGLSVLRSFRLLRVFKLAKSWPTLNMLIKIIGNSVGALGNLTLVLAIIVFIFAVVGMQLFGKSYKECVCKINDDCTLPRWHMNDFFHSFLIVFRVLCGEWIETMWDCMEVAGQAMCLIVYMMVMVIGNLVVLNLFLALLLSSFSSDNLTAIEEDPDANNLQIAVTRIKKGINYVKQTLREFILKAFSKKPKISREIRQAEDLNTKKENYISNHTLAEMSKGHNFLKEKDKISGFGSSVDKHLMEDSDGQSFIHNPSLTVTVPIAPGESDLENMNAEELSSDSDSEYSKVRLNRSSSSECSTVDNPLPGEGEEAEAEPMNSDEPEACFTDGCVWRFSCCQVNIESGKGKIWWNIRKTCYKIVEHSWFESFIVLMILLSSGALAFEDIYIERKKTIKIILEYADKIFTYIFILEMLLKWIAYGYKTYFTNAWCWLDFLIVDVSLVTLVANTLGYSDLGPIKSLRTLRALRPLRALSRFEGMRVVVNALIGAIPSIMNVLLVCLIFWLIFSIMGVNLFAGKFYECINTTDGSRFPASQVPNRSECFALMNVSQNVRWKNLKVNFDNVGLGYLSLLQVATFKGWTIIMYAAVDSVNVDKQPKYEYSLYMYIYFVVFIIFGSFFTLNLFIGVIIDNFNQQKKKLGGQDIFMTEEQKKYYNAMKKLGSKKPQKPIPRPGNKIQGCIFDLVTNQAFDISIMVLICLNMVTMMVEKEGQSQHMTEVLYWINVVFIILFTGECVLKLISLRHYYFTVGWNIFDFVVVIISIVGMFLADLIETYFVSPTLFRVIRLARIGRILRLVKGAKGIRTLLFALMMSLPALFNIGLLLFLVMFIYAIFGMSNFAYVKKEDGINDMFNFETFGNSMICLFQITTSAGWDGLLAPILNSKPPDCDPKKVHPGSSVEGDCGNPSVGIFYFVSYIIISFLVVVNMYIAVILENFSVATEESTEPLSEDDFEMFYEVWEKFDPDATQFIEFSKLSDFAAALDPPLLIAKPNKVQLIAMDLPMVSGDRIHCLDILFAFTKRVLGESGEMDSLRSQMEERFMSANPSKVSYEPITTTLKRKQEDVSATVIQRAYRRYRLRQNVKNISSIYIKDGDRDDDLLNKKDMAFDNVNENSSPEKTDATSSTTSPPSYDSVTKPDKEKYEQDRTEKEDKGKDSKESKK
protocol: Nav 1.7 in vitro PX assay, PatchXpress whole cell voltage clamp
Assay type: cell-based
particulars: HEK 293 cells stably transfected with human Nav1.7; partially inactivated state (20 to 50% inactivation)
Let's look at some molecules and their measured IC50.

molecule	assayed.system	IC50
O=S(=O)(Nc1nccs1)c1ccc2c(c1)OCCN2c1ccc2scnc2c1 [Example 70, 2,2,2-Trifluoroacetate]	UniProtKB Q15858	5.69 µM
N#Cc1cc(C(F)(F)F)ccc1N1CCOc2cc(S(=O)(=O)Nc3nccs3)ccc21	UniProtKB Q15858	0.193 µM
O=S(=O)(Nc1nccs1)c1ccc2c(c1)OCCN2c1ccc(Cl)c(C(F)(F)F)c1	UniProtKB Q15858	4.04 µM
CC1COc2cc(S(=O)(=O)Nc3nccs3)ccc2N1c1ccc(C(F)(F)F)cc1C#N (racemic)	UniProtKB Q15858	1.89 µM
O=S(=O)(Nc1nncs1)c1ccc2c(c1)OCCN2c1ccc(C(F)(F)F)cc1Cl	UniProtKB Q15858	2.65 µM
O=C1COc2cc(S(=O)(=O)Nc3nccs3)ccc2N1c1ccc(C(F)(F)F)cc1CO	UniProtKB Q15858	3.35 µM
O=S(=O)(Nc1ncns1)c1ccc2c(c1)OCCN2c1cccc(OC(F)(F)F)c1	UniProtKB Q15858	0.138 µM
O=S(=O)(Nc1nccs1)c1ccc2c(c1)OCCN2c1cccc(OC(F)(F)F)c1	UniProtKB Q15858	2.62 µM

====

Let's look at some compounds and their measured IC50.
assayed.system: UniProt:Q15858
protocol: Nav 1.7 in vitro assay, IonWorks Quattro (IWQ) population patch-clamp
Format: cell-based
particulars: HEK 293 cells stably transfected with Nav 1.7; 26th pulse to -20 mV

compound	assayed.system	unit.spec	IC50
COc1ccccc1N1CCOc2cc(S(=O)(=O)Nc3nccs3)ccc21 [Example 205]	UniProt:Q15858	nM	38
Cc1cc(OC(F)(F)F)ccc1N1CCOc2cc(S(=O)(=O)Nc3nccs3)ccc21 [Example 140]	UniProt:Q15858	nM	451
N#Cc1cc(C(F)(F)F)ccc1N1CCOc2cc(S(=O)(=O)Nc3nccs3)c(F)cc21 [Example 215]	UniProt:Q15858	nM	9.86
COc1cc(Cl)ccc1N1CC(C)Oc2cc(S(=O)(=O)Nc3nccs3)ccc21 (racemic) [Example 103]	UniProt:Q15858	nM	40
